measured on: heteromeric KV7.2/KV7.3 channels (KCNQ2, KCNQ3) (Homo sapiens, UniProt O43525+O43526)
measurement protocol: Automated patch-clamp (Sophion Qube 384) potency assay against KV7.2/KV7.3 channels
condition details: CHO-K1/Kv7.2/Kv7.3 cells; EC50 from concentration-response of shift in Vhalf, 10 concentrations up to 30 μM; read-out: Kv7.2/7.3 EC50
Some compounds, each annotated with its measured log10 of EC50.
Please interpret these as log10 of EC50 where EC50 is in µM.

Check out these entries, answers already filled in.
| compound | reported property | result |
| --- | --- | --- |
| O=C(NCc1ccnc(OCC(F)(F)F)c1)NCC12CC(F)(C1)C2 | log10 of EC50 | 0.35 |
| O=C(NCc1ccnc(OCC(F)(F)F)c1)N[C@H]1C[C@H]2CC[C@@H]1O2 | log10 of EC50 | 1.08 |
| C#CCOc1cc(CNC(=O)NCC2CCC(F)(F)CC2)ccn1 | log10 of EC50 | 0.85 |

Query: Quick check: log10 of EC50 on heteromeric KV7.2/KV7.3 channels (KCNQ2, KCNQ3) (Homo sapiens, UniProt O43525+O43526), item O=C(NCc1ccnc(OCC(F)(F)F)c1)N[C@H]1c2ccccc2C[C@@H]1O ?
Result: 0.82

Query: Quick check: log10 of EC50 on heteromeric KV7.2/KV7.3 channels (KCNQ2, KCNQ3) (Homo sapiens, UniProt O43525+O43526), item O=C(NCc1ccnc(OCc2ccccc2)c1)Nc1cccc(F)c1 ?
Result: -0.22

Query: Quick check: log10 of EC50 on heteromeric KV7.2/KV7.3 channels (KCNQ2, KCNQ3) (Homo sapiens, UniProt O43525+O43526), item O=C(NCCC1(C(F)(F)F)CC1)NCc1ccnc(OCc2ccccc2F)c1 ?
Result: -0.58

Query: Quick check: log10 of EC50 on heteromeric KV7.2/KV7.3 channels (KCNQ2, KCNQ3) (Homo sapiens, UniProt O43525+O43526), item COc1cc2c(cc1F)CC[C@H]2NC(=O)NCc1ccnc(OCC(F)(F)F)c1 ?
Result: 0.09

Query: Quick check: log10 of EC50 on heteromeric KV7.2/KV7.3 channels (KCNQ2, KCNQ3) (Homo sapiens, UniProt O43525+O43526), item CC1CC(NC(=O)NCc2ccnc(OCC(F)(F)F)c2)c2ccccc21 (stereo not shown) ?
Result: 0.35

Query: Quick check: log10 of EC50 on heteromeric KV7.2/KV7.3 channels (KCNQ2, KCNQ3) (Homo sapiens, UniProt O43525+O43526), item O=C(NCc1ccnc(OCC(F)(F)F)c1)N[C@@H]1CCCC[C@@H]1O ?
Result: 1.07

Query: Quick check: log10 of EC50 on heteromeric KV7.2/KV7.3 channels (KCNQ2, KCNQ3) (Homo sapiens, UniProt O43525+O43526), item O=C(NCc1ccnc(OCC(F)(F)F)c1)N[C@@H]1CCOc2ccc(F)cc21 ?
Result: 0.19

* * *

measured on: heteromeric KV7.2/KV7.3 channels (KCNQ2, KCNQ3) (Homo sapiens, UniProt O43525+O43526)
Construct: expressed in transfected cells; host or cells: CHO-K1
measurement protocol: Automated patch-clamp (Sophion Qube 384) potency assay against KV7.2/KV7.3 channels
Assay type: cell-based
condition details: CHO-K1/Kv7.2/Kv7.3 cells; EC50 from concentration-response of shift in Vhalf, 10 concentrations up to 30 μM; read-out: Kv7.2/7.3 EC50
pEC50: −log10 of the molar value.
Label 1 when pEC50 is at or above 6; otherwise label 0.

| record smiles | category |
| --- | --- |
| C[C@@H](Oc1cc(CNC(=O)N[C@@H]2COc3ccccc3C2)ncn1)C(F)(F)F | 0 |
| COc1ccc2c(c1)[C@H](NC(=O)NCc1ccnc(OCC(F)(F)F)c1)CC2 | 0 |
| O=C(NCc1ccnc(OCC(F)(F)F)c1)Nc1cccc2c1CCC2 | 1 |
| C[C@@H](Oc1cc(CNC(=O)N[C@@H]2COc3ccccc32)ncn1)C(F)(F)F | 0 |
| C[C@@H](Oc1cc(CNC(=O)N[C@@H]2CCOc3ccccc32)ncn1)C(F)(F)F | 0 |
| CC(C)(C)[C@@H](O)CNC(=O)NCc1ccnc(OCC(F)(F)C(F)(F)F)c1 | 0 |
| O=C(NCc1ccnc(OCC(F)(F)F)c1)N[C@@H]1CCc2cc(Cl)ccc21 | 0 |
| Cc1cnc(COc2cc(CNC(=O)NCCC3(C(F)(F)F)CC3)ccn2)o1 | 0 |

Query: Decide: is the reported value of pEC50 for O=C(NCc1ccnc(OCC(F)(F)F)n1)NCC1CCCCC1 equal to or greater than 6?
Result: 0

Query: Decide: is the reported value of pEC50 for O=C(NCC1CCC(F)(F)CC1)N[C@@H](CO)c1ccnc(OCC(F)(F)F)c1 equal to or greater than 6?
Result: 0

Query: Decide: is the reported value of pEC50 for O=C(NCCC1(C(F)(F)F)CC1)NCc1ccnc(OCc2ccc(F)cc2)c1 equal to or greater than 6?
Result: 1
